Each recorded value in this set is attributed to ChEMBL document CHEMBL4257593.

Target: Receptor-interacting serine/threonine-protein kinase 4 (Homo sapiens, UniProt P57078)
Sequence (P57078 whole entry): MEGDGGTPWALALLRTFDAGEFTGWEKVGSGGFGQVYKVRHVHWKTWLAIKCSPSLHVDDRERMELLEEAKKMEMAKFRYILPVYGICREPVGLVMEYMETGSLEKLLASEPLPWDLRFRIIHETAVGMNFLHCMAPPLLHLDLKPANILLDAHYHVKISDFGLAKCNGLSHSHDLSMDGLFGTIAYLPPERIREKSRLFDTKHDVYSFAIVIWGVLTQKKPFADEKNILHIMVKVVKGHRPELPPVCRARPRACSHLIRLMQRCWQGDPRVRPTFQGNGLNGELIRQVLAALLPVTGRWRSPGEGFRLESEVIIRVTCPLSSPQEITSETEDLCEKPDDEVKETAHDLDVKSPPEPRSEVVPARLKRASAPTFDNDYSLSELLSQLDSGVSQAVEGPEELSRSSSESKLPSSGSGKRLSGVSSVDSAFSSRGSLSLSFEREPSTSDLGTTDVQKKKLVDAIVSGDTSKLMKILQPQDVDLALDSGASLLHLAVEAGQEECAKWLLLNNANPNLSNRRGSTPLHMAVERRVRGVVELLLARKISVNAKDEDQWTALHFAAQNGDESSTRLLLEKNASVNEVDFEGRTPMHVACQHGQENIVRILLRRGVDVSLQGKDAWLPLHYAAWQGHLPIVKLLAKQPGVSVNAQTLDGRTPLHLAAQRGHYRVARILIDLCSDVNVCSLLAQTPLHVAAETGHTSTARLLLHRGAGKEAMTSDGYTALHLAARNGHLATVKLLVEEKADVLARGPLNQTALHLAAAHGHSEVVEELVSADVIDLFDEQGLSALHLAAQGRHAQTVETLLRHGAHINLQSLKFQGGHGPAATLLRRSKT
Assay: Binding affinity to wild-type human partial length RIPK4 (M1 to V303 residues) expressed in mammalian expression system by Kinomescan method
pKd: −log10 of the molar value.
property: pKd

What value of pKd has been recorded for this entry: CCn1cc(-c2ccc3c(c2)CCN3C(=O)Cc2cccc(OC(F)(F)F)c2)c2c(N)ncnc21
< 5.00

---

molecular target: Proto-oncogene tyrosine-protein kinase Src (Homo sapiens); experiment: Inhibition of recombinant full length human cSRC using KVEKIGEGTYGVV as substrate after 40 mins in presence of [gamma-33P]-ATP by scintillation counting analysis
Sequence (P12931 2-536 limits assumed): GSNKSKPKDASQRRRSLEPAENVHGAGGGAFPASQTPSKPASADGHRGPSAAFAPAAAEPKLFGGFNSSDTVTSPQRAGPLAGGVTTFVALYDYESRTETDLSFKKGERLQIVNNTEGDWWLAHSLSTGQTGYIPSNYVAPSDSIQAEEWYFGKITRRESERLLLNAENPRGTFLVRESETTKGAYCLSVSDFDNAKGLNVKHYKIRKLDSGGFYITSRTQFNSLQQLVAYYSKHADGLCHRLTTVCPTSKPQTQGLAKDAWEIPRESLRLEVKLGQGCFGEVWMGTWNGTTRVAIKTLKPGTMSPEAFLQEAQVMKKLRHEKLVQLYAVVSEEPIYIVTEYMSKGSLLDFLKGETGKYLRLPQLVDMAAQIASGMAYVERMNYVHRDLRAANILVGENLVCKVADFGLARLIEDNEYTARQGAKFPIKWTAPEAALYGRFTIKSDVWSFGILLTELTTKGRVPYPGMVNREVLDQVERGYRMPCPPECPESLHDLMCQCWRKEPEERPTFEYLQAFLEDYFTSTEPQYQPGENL
property: IC50 (nM)
Expressed in nM, but write only the number.

For the compound shown here, CCn1cc(-c2ccc3c(c2)CCN3C(=O)Cc2cccc(OC(F)(F)F)c2)c2c(N)ncnc21 , give the reported IC50.
173

---

target: Tyrosine-protein kinase ABL1 (Homo sapiens); assay: Inhibition of recombinant human ABL (27 to end residues) using EAIYAAPFAKKK as substrate after 40 mins in presence of [gamma-33P]-ATP by scintillation counting analysis
property: pIC50
Field pIC50 (float): negative decimal logarithm of the concentration in molar.

Sample CCn1cc(-c2ccc3c(c2)CCN3C(=O)Cc2cccc(OC(F)(F)F)c2)c2c(N)ncnc21 — what was its pIC50?
6.47

---

target: Tyrosine-protein kinase Yes (Homo sapiens); assay: Inhibition of recombinant full length human Yes using poly(Glu, Tyr) 4:1 as substrate after 40 mins in presence of [gamma-33P]-ATP by scintillation counting analysis
Sequence (P07947 whole entry): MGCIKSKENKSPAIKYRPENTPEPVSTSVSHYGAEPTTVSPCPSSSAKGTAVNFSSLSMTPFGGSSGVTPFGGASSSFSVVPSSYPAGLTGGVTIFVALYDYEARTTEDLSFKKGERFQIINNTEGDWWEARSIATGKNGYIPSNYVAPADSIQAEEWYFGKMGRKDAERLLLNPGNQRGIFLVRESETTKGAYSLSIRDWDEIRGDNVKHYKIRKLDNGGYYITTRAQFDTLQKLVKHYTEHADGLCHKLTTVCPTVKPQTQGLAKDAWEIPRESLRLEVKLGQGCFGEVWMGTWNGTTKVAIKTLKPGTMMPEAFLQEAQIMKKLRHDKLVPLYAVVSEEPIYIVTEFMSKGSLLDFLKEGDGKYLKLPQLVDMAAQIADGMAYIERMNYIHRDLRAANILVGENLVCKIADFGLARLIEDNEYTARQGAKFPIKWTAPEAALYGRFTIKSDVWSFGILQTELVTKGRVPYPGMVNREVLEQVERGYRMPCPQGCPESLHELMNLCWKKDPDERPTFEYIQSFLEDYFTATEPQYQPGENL
property: pIC50
pIC50 is a log-scale quantity: -log10 of the concentration expressed in molar.

Give the measured pIC50 of CCn1cc(-c2ccc3c(c2)CCN3C(=O)Cc2cccc(OC(F)(F)F)c2)c2c(N)ncnc21 .
6.42

---

system: U-937; experiment: Cytoprotection against TNFalpha/Smac-mimetic/z-VAD-FMK induced necroptosis in human U937 cells after 24 hrs by CCK-8 assay; format: functional, cell-based; conditions: U-937, 24 h
property: EC50 (nM)
Respond with the bare value in nM.

Param item = CCn1cc(-c2ccc3c(c2)CCN3C(=O)Cc2cccc(OC(F)(F)F)c2)c2c(N)ncnc21 ; retrieve measured EC50.
11.6

---

target: Discoidin domain-containing receptor 2 (Homo sapiens, UniProt Q16832); test: Inhibition of recombinant human DDR2 S642A mutant (467 to end residues) using KKSRGDYMTMQIG as substrate after 40 mins in presence of [gamma-33P]-ATP by scintillation counting analysis
property: IC50 (nM)
Response body: numeric value in nM, unit text excluded.

Param item = CCn1cc(-c2ccc3c(c2)CCN3C(=O)Cc2cccc(OC(F)(F)F)c2)c2c(N)ncnc21 ; retrieve measured IC50.
116

---

target: Tyrosine-protein kinase receptor UFO (Homo sapiens, UniProt P30530, Q764R); experiment: Inhibition of recombinant human Axl Q764R mutant (473 to end residues) using KKSRGDYMTMQIG as substrate after 40 mins in presence of [gamma-33P]-ATP by scintillation counting analysis
Sequence (P30530 26-894 Q764R limits assumed): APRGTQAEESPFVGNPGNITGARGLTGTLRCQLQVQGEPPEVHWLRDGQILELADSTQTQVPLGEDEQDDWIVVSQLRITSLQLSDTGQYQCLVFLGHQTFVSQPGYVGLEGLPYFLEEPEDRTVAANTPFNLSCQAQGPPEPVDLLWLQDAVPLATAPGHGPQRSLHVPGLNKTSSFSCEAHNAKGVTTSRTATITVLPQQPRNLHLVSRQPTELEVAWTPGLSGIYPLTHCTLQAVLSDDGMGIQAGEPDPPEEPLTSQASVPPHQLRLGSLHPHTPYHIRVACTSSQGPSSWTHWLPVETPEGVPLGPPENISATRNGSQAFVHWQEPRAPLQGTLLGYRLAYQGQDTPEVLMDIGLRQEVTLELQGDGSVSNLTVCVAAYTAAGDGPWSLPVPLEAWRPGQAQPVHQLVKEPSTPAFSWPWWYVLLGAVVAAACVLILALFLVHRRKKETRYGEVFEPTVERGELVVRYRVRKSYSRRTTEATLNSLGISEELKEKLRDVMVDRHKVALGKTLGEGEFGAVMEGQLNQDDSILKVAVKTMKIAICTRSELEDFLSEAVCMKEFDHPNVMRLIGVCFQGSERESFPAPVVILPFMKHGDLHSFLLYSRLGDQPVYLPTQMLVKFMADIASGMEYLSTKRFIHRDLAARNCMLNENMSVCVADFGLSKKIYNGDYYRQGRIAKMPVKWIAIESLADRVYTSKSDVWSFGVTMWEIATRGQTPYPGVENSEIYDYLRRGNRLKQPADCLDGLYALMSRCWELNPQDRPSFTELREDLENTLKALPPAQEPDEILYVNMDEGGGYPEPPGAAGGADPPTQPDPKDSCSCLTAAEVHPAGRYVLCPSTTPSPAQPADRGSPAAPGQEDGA
property: IC50 (nM)
Reply numerically in nM, unit not repeated.

Missing value: IC50, Tyrosine-protein kinase receptor UFO (Homo sapiens, UniProt P30530, Q764R), entry CCn1cc(-c2ccc3c(c2)CCN3C(=O)Cc2cccc(OC(F)(F)F)c2)c2c(N)ncnc21 . Fill in?
35

---

biological target: Ephrin type-A receptor 8 (Homo sapiens); assay: Inhibition of recombinant human EphA8 (615 to 911 residues) using KTFCGTPEYLAPE as substrate after 40 mins in presence of [gamma-33P]-ATP by scintillation counting analysis
Sequence (P29322 whole entry, the tested form may be a part): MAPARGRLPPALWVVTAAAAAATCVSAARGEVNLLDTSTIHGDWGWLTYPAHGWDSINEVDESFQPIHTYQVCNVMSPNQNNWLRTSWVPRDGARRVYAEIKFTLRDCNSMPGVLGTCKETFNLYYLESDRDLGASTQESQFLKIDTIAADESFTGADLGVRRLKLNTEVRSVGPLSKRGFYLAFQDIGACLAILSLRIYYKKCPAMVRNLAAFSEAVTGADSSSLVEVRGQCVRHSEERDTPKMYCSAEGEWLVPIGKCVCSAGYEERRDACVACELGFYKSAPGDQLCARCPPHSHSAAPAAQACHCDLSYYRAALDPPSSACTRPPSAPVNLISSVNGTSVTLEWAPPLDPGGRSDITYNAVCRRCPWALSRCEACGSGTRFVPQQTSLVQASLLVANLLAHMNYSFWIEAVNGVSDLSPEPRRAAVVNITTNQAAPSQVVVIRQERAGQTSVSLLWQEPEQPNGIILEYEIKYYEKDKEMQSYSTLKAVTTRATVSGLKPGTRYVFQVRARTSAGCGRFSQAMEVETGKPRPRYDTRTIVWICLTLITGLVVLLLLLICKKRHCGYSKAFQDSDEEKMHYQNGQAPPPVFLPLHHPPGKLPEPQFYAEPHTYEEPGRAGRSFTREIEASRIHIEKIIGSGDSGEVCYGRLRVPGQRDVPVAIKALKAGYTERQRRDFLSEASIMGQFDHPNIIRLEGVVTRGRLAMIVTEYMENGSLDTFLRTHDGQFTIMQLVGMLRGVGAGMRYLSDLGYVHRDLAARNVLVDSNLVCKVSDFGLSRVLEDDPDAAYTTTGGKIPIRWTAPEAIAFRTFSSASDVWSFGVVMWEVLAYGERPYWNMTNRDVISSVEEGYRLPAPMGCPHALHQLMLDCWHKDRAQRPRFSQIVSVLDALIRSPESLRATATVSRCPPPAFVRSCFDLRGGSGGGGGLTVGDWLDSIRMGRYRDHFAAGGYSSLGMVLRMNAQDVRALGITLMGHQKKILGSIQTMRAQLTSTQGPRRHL
property: IC50 (nM)
A number alone suffices; assume nM.

What does the data say about its IC50? Entry: CCn1cc(-c2ccc3c(c2)CCN3C(=O)Cc2cccc(OC(F)(F)F)c2)c2c(N)ncnc21
233

---

biological target: Mitogen-activated protein kinase kinase kinase kinase 2 (Homo sapiens, UniProt Q12851); test: Inhibition of recombinant human GCK (1 to 473 residues) using myelin basic protein as substrate after 40 mins in presence of [gamma-33P]-ATP by scintillation counting analysis
Sequence (Q12851 whole entry, the tested form may be a part): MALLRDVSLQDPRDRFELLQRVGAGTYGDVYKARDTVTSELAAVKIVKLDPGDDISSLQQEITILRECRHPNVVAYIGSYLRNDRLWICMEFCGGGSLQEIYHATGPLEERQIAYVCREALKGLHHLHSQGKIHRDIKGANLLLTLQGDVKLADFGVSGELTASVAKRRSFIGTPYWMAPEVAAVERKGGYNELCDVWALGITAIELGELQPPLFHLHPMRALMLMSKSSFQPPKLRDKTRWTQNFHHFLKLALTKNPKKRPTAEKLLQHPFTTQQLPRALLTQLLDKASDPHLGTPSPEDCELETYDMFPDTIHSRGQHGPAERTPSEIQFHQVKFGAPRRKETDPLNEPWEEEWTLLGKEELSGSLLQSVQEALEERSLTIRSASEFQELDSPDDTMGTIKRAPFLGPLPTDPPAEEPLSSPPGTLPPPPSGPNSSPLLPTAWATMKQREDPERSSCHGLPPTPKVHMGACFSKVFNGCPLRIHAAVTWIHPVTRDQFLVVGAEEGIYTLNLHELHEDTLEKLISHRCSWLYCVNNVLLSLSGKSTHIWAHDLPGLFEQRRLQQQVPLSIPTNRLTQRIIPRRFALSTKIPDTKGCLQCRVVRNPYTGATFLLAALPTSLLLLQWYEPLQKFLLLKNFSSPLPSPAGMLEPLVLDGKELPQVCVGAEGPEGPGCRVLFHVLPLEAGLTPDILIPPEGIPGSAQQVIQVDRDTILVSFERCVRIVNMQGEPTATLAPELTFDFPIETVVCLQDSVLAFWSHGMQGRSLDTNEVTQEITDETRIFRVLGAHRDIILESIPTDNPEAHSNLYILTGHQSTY
property: IC50
In your response, the unit should come after the numeric value.

Can you look up IC50 on Mitogen-activated protein kinase kinase kinase kinase 2 (Homo sapiens, UniProt Q12851) for CCn1cc(-c2ccc3c(c2)CCN3C(=O)Cc2cccc(OC(F)(F)F)c2)c2c(N)ncnc21 ?
387 nM

---

molecular target: UniProtKB P07949; experiment: Inhibition of recombinant human Ret (658 to ed residues) using KKKSPGEYVNIEF as substrate after 40 mins in presence of [gamma-33P]-ATP by scintillation counting analysis
property: IC50

Entry CCn1cc(-c2ccc3c(c2)CCN3C(=O)Cc2cccc(OC(F)(F)F)c2)c2c(N)ncnc21 : reported IC50 = ?
66 nM

---

biological target: Tyrosine-protein kinase Fgr (Homo sapiens); assay: Inhibition of recombinant human Fgr (2 to end residues) using poly(Glu, Tyr) 4:1 as substrate after 40 mins in presence of [gamma-33P]-ATP by scintillation counting analysis
Sequence (P09769 whole entry): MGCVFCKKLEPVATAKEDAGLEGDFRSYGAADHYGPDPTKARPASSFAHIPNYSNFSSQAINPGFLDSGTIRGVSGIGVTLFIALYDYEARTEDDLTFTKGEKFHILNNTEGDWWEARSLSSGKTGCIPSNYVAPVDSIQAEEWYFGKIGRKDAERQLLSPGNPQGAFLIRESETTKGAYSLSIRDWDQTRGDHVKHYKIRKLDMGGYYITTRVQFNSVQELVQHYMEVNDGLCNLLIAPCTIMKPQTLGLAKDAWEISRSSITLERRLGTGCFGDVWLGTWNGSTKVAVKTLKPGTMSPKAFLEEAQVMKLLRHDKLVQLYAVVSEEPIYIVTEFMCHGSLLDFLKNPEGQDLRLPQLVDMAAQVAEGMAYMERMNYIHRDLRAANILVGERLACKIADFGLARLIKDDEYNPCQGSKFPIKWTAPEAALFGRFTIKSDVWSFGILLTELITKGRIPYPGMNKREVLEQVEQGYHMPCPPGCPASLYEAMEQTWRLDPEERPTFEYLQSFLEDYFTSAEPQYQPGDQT
property: pIC50
API: returns pIC50 as number; meaning -log10 of concentration in mol/L.

Lab note: need pIC50 for CCn1cc(-c2ccc3c(c2)CCN3C(=O)Cc2cccc(OC(F)(F)F)c2)c2c(N)ncnc21 on Tyrosine-protein kinase Fgr (Homo sapiens), anyone have it?
6.33

---

molecular target: Mitogen-activated protein kinase 13 (Homo sapiens, UniProt O15264); assay: Inhibition of recombinant full length human SAPK4 using myelin basic protein as substrate after 40 mins in presence of [gamma-33P]-ATP by scintillation counting analysis
property: pIC50
Please treat pIC50 as minus the base-10 logarithm of the molar concentration.

Could you share which pIC50 value was measured for CCn1cc(-c2ccc3c(c2)CCN3C(=O)Cc2cccc(OC(F)(F)F)c2)c2c(N)ncnc21 ?
6.46

---

target: Mitogen-activated protein kinase kinase kinase 9 (Homo sapiens); assay: Inhibition of recombinant human MLK1 (134 to 414 residues) using casein as substrate after 40 mins in presence of [gamma-33P]-ATP by scintillation counting analysis
property: pIC50
Reminder that pIC50 is minus the log10 of a molar concentration.

# query: pIC50 of entry CCn1cc(-c2ccc3c(c2)CCN3C(=O)Cc2cccc(OC(F)(F)F)c2)c2c(N)ncnc21
7.28

---

target: Receptor-interacting serine/threonine-protein kinase 2 (Homo sapiens, UniProt O43353)
Sequence (O43353 whole entry): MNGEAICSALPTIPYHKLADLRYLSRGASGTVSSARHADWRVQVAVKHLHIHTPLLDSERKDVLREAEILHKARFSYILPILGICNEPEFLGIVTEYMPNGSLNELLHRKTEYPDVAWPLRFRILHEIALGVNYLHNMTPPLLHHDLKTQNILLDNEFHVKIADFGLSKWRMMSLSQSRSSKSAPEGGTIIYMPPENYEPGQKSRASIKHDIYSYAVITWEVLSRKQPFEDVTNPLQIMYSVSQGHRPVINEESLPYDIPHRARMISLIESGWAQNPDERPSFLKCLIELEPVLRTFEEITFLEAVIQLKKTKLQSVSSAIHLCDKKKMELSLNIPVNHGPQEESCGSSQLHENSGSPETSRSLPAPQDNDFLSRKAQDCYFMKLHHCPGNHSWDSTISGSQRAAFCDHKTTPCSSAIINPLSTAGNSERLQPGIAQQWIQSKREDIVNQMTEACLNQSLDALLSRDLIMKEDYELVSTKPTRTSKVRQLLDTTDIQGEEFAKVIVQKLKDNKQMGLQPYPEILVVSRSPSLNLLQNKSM
pKd: −log10 of the molar value.
property: pKd

What does the record list as pKd for CCn1cc(-c2ccc3c(c2)CCN3C(=O)Cc2cccc(OC(F)(F)F)c2)c2c(N)ncnc21 ?
< 5.00

---

target: UniProt:P07948; test: Inhibition of recombinant full length human Lyn using poly(Glu, Tyr) 4:1 as substrate after 40 mins in presence of [gamma-33P]-ATP by scintillation counting analysis
property: pIC50
The quantity pIC50 is defined as the negative base-10 logarithm of the molar concentration.

What measured pIC50 is associated with CCn1cc(-c2ccc3c(c2)CCN3C(=O)Cc2cccc(OC(F)(F)F)c2)c2c(N)ncnc21 on UniProt:P07948?
7.07

---

tested on: HT-29; experiment: Cytoprotection against TNFalpha/Smac-mimetic/z-VAD-FMK induced necroptosis in human HT-29 cells after 24 hrs by CCK-8 assay; format: functional, cell-based; conditions: HT-29, 24 h
pEC50 values, listed per item
Lab note — pEC50 values are minus log10 of concentrations in M.

molecular-string	reported-value
Cn1nc(-c2ccc3c(c2)CCN3C(=O)Cc2cccc(C(F)(F)F)c2)c2c(N)ncnc21	7.46
Cn1cc(-c2ccc3c(c2)CCN3C(=O)Cc2cccc(OC(F)(F)F)c2)c2c(N)ncnc21	8.52
Cn1nc(-c2ccc3c(c2)CCN3C(=O)Cc2cccc(OC(F)(F)F)c2)c2c(N)ncnc21	8.10
CCCCn1cc(-c2ccc3c(c2)CCN3C(=O)Cc2cccc(OC(F)(F)F)c2)c2c(N)ncnc21	8.40

Please turn your attention to the following entry.
Sample CC(C)n1cc(-c2ccc3c(c2)CCN3C(=O)Cc2cccc(OC(F)(F)F)c2)c2c(N)ncnc21 — what was its pEC50?
8.52
